B1: Hairpin Ribozyme (parent)
chain: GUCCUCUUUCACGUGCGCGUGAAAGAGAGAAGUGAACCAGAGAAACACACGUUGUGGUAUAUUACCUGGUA

Variants of: B1
Experiment: self-cleavage, relative activity (ratio to wild type); higher = more cleavage; co-transcriptional
attribute_measured: self-cleavage
The reply should be a number, written without any unit.

Inquiry: Look at this variant and give its reported self-cleavage. GUCCUCUUUCACGUGCGCGUGAAAGAGAGAAGUGCACCAGACAAACACACGUUGUGGUAUAUUACCUGGUA [A35C G42C]
Reply text: 0.505

Inquiry: Look at this variant and give its reported self-cleavage. GUCCUCUUUCACGUGCACGUGAAAGAGAGAAGUGAACCAGAGAAACACAUGUUGUGGUAUAUUACCUGGUA [G17A C50U]
Reply text: 0.373

Inquiry: Look at this variant and give its reported self-cleavage. GUCCUCUUUCACGUGCGCGUAAAAGAGAGAAGUGAACCAGAGAAACACACGUUGUGGUAUAUGACCUGGUA [G21A U63G]
Reply text: 0.118

Inquiry: Look at this variant and give its reported self-cleavage. GUCCUCUUUCACGUGCGCGUGAAAGAGAGAAGUGAACGAGAGAACCACACGUUGUGGUAUAUUACCUGGUA [C38G A45C]
Reply text: 0.0432

Inquiry: Look at this variant and give its reported self-cleavage. GUCCUCUUUCACGUGCGCGUGAAAGAGUGAAGUGAACCAGAGAACCACACGUUGUGGUAUAUUACCUGGUA [A28U A45C]
Reply text: 0.0951

---
Inquiry: Look at this variant and give its reported self-cleavage. GUCCUGUUUCACGUGCGCUUGAAAGAGAGAAGUGAACCAGAGAAACACACGUUGUGGUAUAUUACCUGGUA [C6G G19U]
Reply text: 0.201

Inquiry: Look at this variant and give its reported self-cleavage. GUCCUCUUUCACGUGCGCGUGAAAGAGAGAAGUGCACCAGAGAAACACACGUUGUAGUAUAUUACCUGGUA [A35C G56A]
Reply text: 0.161

Inquiry: Look at this variant and give its reported self-cleavage. GUCCUCUUUCACGUGCGCGUGAAAGAGAGAAGUGAACCAGAGAAACACUCGUUGUGGUAUAUUACCUGGCA [A49U U70C]
Reply text: 0.124

Inquiry: Look at this variant and give its reported self-cleavage. GUCCUCUUUCACGUGCGCGUGAAAGAGAGAAGUGAACCAGAGAAACACACGUUGUCGUAUAAUACCUGGUA [G56C U62A]
Reply text: 0.263

Inquiry: Look at this variant and give its reported self-cleavage. GUCCUCUUUCACGUGCGCGUGAAAGAGAGAAGUGAACCAGAGAAACGCACGUUGUAGUAUAUUACCUGGUA [A47G G56A]
Reply text: 0.103
